Assay: AlphaScreen optical interference compounds, counter-screen for MITF inhibitor project, biochemical, triplicate (AID 1259376)
Details: LysRS AlphaScreen counterscreen, signal interference, at 2.6 µM, active compounds read high
Hit rate of the full screen: of about 4,700 compounds, about 360 (7.7%) were called active. The sample as a whole holds a higher share of actives than the screen did.
Reported inhibition values for the following molecules.
Respond with the bare value in %.

structure: CCN1CCc2nc3ccccc3c(C(=O)O)c2C1
units: %
inhibition: 4.31

structure: COc1cccc(CN2CCN(Cc3ccccc3F)CC2)c1
units: %
inhibition: 16.6

structure: COc1cc(NC(=O)CCc2nc(C3=CCN(C)CC3)no2)cc(OC)c1OC
units: %
inhibition: 34.2

API: the following record is the query input.
Data request: # query: inhibition of entry `COc1ccccc1CN1CCN(C(=O)Cc2ccccc2)CC1`
Data returned: 7.15
